Ref: the Human Domainome abundance scans (Beltran et al. 2025)

B1: Myocardin, residues 363 to 406; numbered along this chain, Q8IZQ8 (parent)
chain: KPGPLPPNLDDLKVSELRQQLRIRGLPVSGTKTALMDRLRPFQD

Variants of: B1
Assay: abundance fitness (aPCA) (normalised: wild type 0, dead -1); higher = more abundant; growth selection in yeast, the domain comes from the species named
Conditions: Homo sapiens
Ranges used to classify abundance fitness: bottom range (below -0.5), center range (-0.5 to below -0.2), top range (-0.2 or more)

[in] Kindly identify the class of `L35T` .
[out] bottom range

[in] Kindly identify the class of `R38N` .
[out] bottom range

[in] Kindly identify the class of `R38K` .
[out] center range

[in] Kindly identify the class of `N8H` .
[out] center range

[in] Kindly identify the class of `Q43H` .
[out] center range

[in] Kindly identify the class of `Q20I` .
[out] top range

[in] Kindly identify the class of `L39K` .
[out] bottom range

[in] Kindly identify the class of `P4F` .
[out] top range

[in] Kindly identify the class of `D11P` .
[out] bottom range

[in] Kindly identify the class of `K1L` .
[out] bottom range

[in] Kindly identify the class of `P41D` .
[out] center range

[in] Kindly identify the class of `D44W` .
[out] center range

[in] Kindly identify the class of `N8S` .
[out] center range

[in] Kindly identify the class of `A34Q` .
[out] bottom range

[in] Kindly identify the class of `P7A` .
[out] top range

[in] Kindly identify the class of `R22V` .
[out] bottom range

[in] Kindly identify the class of `P4S` .
[out] top range

[in] Kindly identify the class of `L5F` .
[out] center range

[in] Kindly identify the class of `A34C` .
[out] center range

[in] Kindly identify the class of `L12A` .
[out] center range

[in] Kindly identify the class of `P27R` .
[out] center range

[in] Kindly identify the class of `Q20V` .
[out] bottom range

[in] Kindly identify the class of `Q43T` .
[out] top range

[in] Kindly identify the class of `S15F` .
[out] center range

[in] Kindly identify the class of `V14F` .
[out] bottom range

[in] Kindly identify the class of `L39R` .
[out] bottom range

[in] Kindly identify the class of `Q20R` .
[out] bottom range

[in] Kindly identify the class of `G25R` .
[out] center range

[in] Kindly identify the class of `D37W` .
[out] bottom range

[in] Kindly identify the class of `E16V` .
[out] center range

[in] Kindly identify the class of `A34W` .
[out] bottom range

[in] Kindly identify the class of `P4E` .
[out] top range

[in] Kindly identify the class of `L39C` .
[out] bottom range

[in] Kindly identify the class of `E16D` .
[out] center range

[in] Kindly identify the class of `G30V` .
[out] bottom range

[in] Kindly identify the class of `L21W` .
[out] bottom range

[in] Kindly identify the class of `V28H` .
[out] center range

[in] Kindly identify the class of `R24M` .
[out] top range

[in] Kindly identify the class of `E16H` .
[out] bottom range

[in] Kindly identify the class of `T33A` .
[out] top range

[in] Kindly identify the class of `Q20P` .
[out] bottom range

[in] Kindly identify the class of `Q19E` .
[out] top range

[in] Kindly identify the class of `L17A` .
[out] bottom range

[in] Kindly identify the class of `L9N` .
[out] bottom range

[in] Kindly identify the class of `R24L` .
[out] center range

[in] Kindly identify the class of `N8M` .
[out] center range

[in] Kindly identify the class of `R24E` .
[out] bottom range

[in] Kindly identify the class of `L9A` .
[out] bottom range

[in] Kindly identify the class of `Q19W` .
[out] bottom range

[in] Kindly identify the class of `R24F` .
[out] bottom range

[in] Kindly identify the class of `V14H` .
[out] center range

[in] Kindly identify the class of `I23K` .
[out] top range

[in] Kindly identify the class of `L35E` .
[out] center range

[in] Kindly identify the class of `S15L` .
[out] bottom range

[in] Kindly identify the class of `L35I` .
[out] top range

[in] Kindly identify the class of `L12G` .
[out] bottom range

[in] Kindly identify the class of `L21C` .
[out] center range

[in] Kindly identify the class of `L12K` .
[out] center range

[in] Kindly identify the class of `S15E` .
[out] top range

[in] Kindly identify the class of `K32G` .
[out] bottom range

[in] Kindly identify the class of `T33S` .
[out] top range

[in] Kindly identify the class of `L12D` .
[out] center range

[in] Kindly identify the class of `D37K` .
[out] center range

[in] Kindly identify the class of `L26K` .
[out] center range

[in] Kindly identify the class of `T31D` .
[out] top range

[in] Kindly identify the class of `D11V` .
[out] top range

[in] Kindly identify the class of `T31F` .
[out] bottom range

[in] Kindly identify the class of `L5R` .
[out] center range

[in] Kindly identify the class of `S15C` .
[out] top range

[in] Kindly identify the class of `V28A` .
[out] top range

[in] Kindly identify the class of `F42P` .
[out] top range

[in] Kindly identify the class of `L35P` .
[out] bottom range

[in] Kindly identify the class of `L5C` .
[out] top range

[in] Kindly identify the class of `L12S` .
[out] center range

[in] Kindly identify the class of `L21Q` .
[out] bottom range

[in] Kindly identify the class of `F42S` .
[out] top range

[in] Kindly identify the class of `R22G` .
[out] bottom range

[in] Kindly identify the class of `N8Q` .
[out] top range

[in] Kindly identify the class of `R38A` .
[out] bottom range

[in] Kindly identify the class of `F42W` .
[out] top range

[in] Kindly identify the class of `V14K` .
[out] top range

[in] Kindly identify the class of `Q20Y` .
[out] center range

[in] Kindly identify the class of `R22I` .
[out] center range

[in] Kindly identify the class of `P4C` .
[out] top range

[in] Kindly identify the class of `S29R` .
[out] center range

[in] Kindly identify the class of `M36K` .
[out] top range

[in] Kindly identify the class of `P41M` .
[out] center range

[in] Kindly identify the class of `P4Q` .
[out] top range

[in] Kindly identify the class of `P6N` .
[out] center range
